Target entity: HDAC8 (Homo sapiens, UniProt Q9BY41)
Sequence (Q9BY41 whole entry): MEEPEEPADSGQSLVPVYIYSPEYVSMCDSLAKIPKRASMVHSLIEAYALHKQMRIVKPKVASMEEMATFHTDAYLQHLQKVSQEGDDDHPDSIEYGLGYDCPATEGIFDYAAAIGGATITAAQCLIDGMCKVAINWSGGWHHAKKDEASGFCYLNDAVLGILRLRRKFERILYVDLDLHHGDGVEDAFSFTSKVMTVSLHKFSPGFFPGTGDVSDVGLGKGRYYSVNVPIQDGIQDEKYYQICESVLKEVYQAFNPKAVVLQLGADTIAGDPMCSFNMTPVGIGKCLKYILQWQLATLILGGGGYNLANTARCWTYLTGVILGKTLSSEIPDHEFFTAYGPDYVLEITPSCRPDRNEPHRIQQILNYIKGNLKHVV
Assay name: HDAC enzymatic assay, HDAC8
Format: biochemical
Experimental conditions: fluorogenic tetrapeptide RHKKAc substrate 10 μM; read-out: HDAC isoforms IC50 (nM), 8
Listing of entries alongside the reported IC50.

O=C1CCC[C@@H](C(=O)N[C@@H](CCCCCS)C(=O)NCc2ccc(C(F)(F)F)cc2)N1 : < 50 nM
Cc1ccc(NC(=O)[C@H](CCCCCS)NC(=O)[C@@H]2CCCC(=O)N2)cc1 : 100 to 500 nM
O=C1NC[C@H](c2ccccc2)[C@H]1C(=O)N[C@@H](CCCCCS)C(=O)Nc1ccccc1 : 100 to 500 nM
O=C1NC[C@H](c2ccccc2)[C@@H]1C(=O)N[C@@H](CCCCCS)C(=O)Nc1ccccc1 : 100 to 500 nM
O=C1CCC[C@@H](C(=O)N[C@@H](CCCCCS)C(=O)NCc2cccc(OCc3ccccc3)c2)N1 : < 50 nM

Now for another entry.
# query: IC50 of entry O=C1NCCC[C@@H]1C(=O)N[C@@H](CCCCCS)C(=O)Nc1ccccc1
100 to 500 nM
